Data origin, for the record: PubChem BioAssay AID1963837

Tested on: 843126-344-R-J1-PDC complex spheroid viability
Test: Anticancer human tumor 843126-344-R-J1-PDC patient-derived melanoma cell line growth inhibition [POLQ]
Conditions: second compound 0.0316 µM; first compound 0.1 µM; active compounds read low
measured_endpoint: viability, T/C (%)
Give bare numbers, in %.

Some solved cases for reference:
{"columns": ["molecule", "unit_spec", "viability, T/C"],
 "data": [
  ["CCc1cc2c(N3CCc4c(cc(Cn5ccnc5)cc4-c4cn(C)nc4C(F)(F)F)C3=O)cc(C)nc2c(OC)n1 + COC1C(OC(N)=O)C(O)C(Oc2ccc3c(O)c(NC(=O)c4ccc(O)c(CC=C(C)C)c4)c(=O)oc3c2C)OC1(C)C", "%", 78],
  ["CNCc1ccc(-c2[nH]c3cc(F)cc4c3c2CCNC4=O)cc1 + Nc1ccc(C#CCN(C(=O)Cc2ncc(C(F)(F)F)cc2C(F)(F)F)c2ccc(F)cc2)nn1", "%", 92.1]
]}

# map each molecule to its viability, T/C
1. CC1COCCN1c1cc(C2(O)CC3CCC(C2)O3)c2cnn(-c3ccn[nH]3)c2n1 (stereo not given) + COC1C(OC(N)=O)C(O)C(Oc2ccc3c(O)c(NC(=O)c4ccc(O)c(CC=C(C)C)c4)c(=O)oc3c2C)OC1(C)C
2. CCc1c2c(nc3ccc(O)cc13)-c1cc3c(c(=O)n1C2)COC(=O)[C@]3(O)CC + COC1C(OC(N)=O)C(O)C(Oc2ccc3c(O)c(NC(=O)c4ccc(O)c(CC=C(C)C)c4)c(=O)oc3c2C)OC1(C)C
3. COc1ccc([C@@H](O)c2cc(-c3ncnc4cc(N5CCOCC5)ccc34)c(F)cc2Cl)nn1 + Cc1cccc(N(C)C(=O)C2C(O)CCN2c2nc(C)cc(C(F)(F)F)c2C#N)c1
4. CC1COCCN1c1cc(C2(S(C)(=N)=O)CC2)nc(-c2ccnc3[nH]ccc23)n1 (stereo not given) + COC1C(OC(N)=O)C(O)C(Oc2ccc3c(O)c(NC(=O)c4ccc(O)c(CC=C(C)C)c4)c(=O)oc3c2C)OC1(C)C
5. O=c1[nH]cc(F)c(=O)[nH]1 + Nc1ccc(C#CCN(C(=O)Cc2ncc(C(F)(F)F)cc2C(F)(F)F)c2ccc(F)cc2)nn1

66.6
64.5
76.6
98
94.7

For each of the molecules below, state viability, T/C.
1. C=CC(=O)N1CCN(c2nc(=O)n(-c3c(C)ccnc3C(C)C)c3nc(-c4c(O)cccc4F)c(F)cc23)C(C)C1 (stereo not given) + Cc1cccc(N(C)C(=O)C2C(O)CCN2c2nc(C)cc(C(F)(F)F)c2C#N)c1
2. COc1cccc2c1C(=O)c1c(O)c3c(c(O)c1C2=O)CC(O)(C(=O)CO)CC3OC1CC(N)C(O)C(C)O1 (stereo not given) + Nc1ccc(C#CCN(C(=O)Cc2ncc(C(F)(F)F)cc2C(F)(F)F)c2ccc(F)cc2)nn1
3. CCc1c2c(nc3ccc(O)cc13)-c1cc3c(c(=O)n1C2)COC(=O)[C@]3(O)CC + Cc1cccc(N(C)C(=O)C2C(O)CCN2c2nc(C)cc(C(F)(F)F)c2C#N)c1

1. 95.2
2. 84.8
3. 67.3

---

Test system: 843126-344-R-J1-PDC complex spheroid viability
Experiment: Anticancer human tumor 843126-344-R-J1-PDC cell line growth inhibition [POLQ];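 also: spheroids exposed to drugs for seven days before readout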
Conditions: second compound 1 µM; first compound 0.1 µM; active compounds read low
measured_endpoint: viability, T/C (%)
Give bare numbers, in %.

Past entries and their recorded results:
{"columns": ["compound", "viability, T/C [%]"],
 "data": [
  ["O=c1[nH]cc(F)c(=O)[nH]1 + Nc1ccc(C#CCN(C(=O)Cc2ncc(C(F)(F)F)cc2C(F)(F)F)c2ccc(F)cc2)nn1", 107],
  ["CC1COCCN1c1cc(-c2ccnn2C)c2ccnc(-c3ccn[nH]3)c2n1 (stereo not drawn) + COC1C(OC(N)=O)C(O)C(Oc2ccc3c(O)c(NC(=O)c4ccc(O)c(CC=C(C)C)c4)c(=O)oc3c2C)OC1(C)C", 77.5]
]}

I am curious: what viability, T/C value has been reported for COc1cccc2c1C(=O)c1c(O)c3c(c(O)c1C2=O)CC(O)(C(=O)CO)CC3OC1CC(N)C(O)C(C)O1 (stereo not drawn) + Cc1cccc(N(C)C(=O)C2C(O)CCN2c2nc(C)cc(C(F)(F)F)c2C#N)c1 ? 69.5
